Assay: clinical
Settings: both, human, plasma, im, 2.5 mg
metricName: half-life (h)
# unit: h | format: bare number

# lookup: half-life of O=C(CCCN1CCC(O)(c2ccc(Cl)cc2)CC1)c1ccc(F)cc1 [haloperidol lactate, haloperidol]
28.8

---

Assay: clinical
Details: both, human, plasma, other: intranasal, 2.5 mg, Cmax, IN 2.5 mg, n=4, mean (CV %)
metricName: Cmax (ng/mL)
# unit: ng/mL | format: bare number

# lookup: Cmax of O=C(CCCN1CCC(O)(c2ccc(Cl)cc2)CC1)c1ccc(F)cc1 [haloperidol lactate, haloperidol]
9.8

---

Test: clinical
Conditions: both, human, plasma, iv, 2.5 mg
metricName: half-life (h)
# unit: h | format: bare number

# lookup: half-life of O=C(CCCN1CCC(O)(c2ccc(Cl)cc2)CC1)c1ccc(F)cc1 [haloperidol lactate, haloperidol]
17.1

---

Assay: clinical
Conditions: human, plasma, im, 2.5 mg
metricName: Tmax (h)
# unit: h | format: bare number

# lookup: Tmax of O=C(CCCN1CCC(O)(c2ccc(Cl)cc2)CC1)c1ccc(F)cc1 [haloperidol lactate, haloperidol]
16

---

Assay: clinical
Conditions: both, human, plasma, im, 2.5 mg
metricName: MRT

# lookup: MRT of O=C(CCCN1CCC(O)(c2ccc(Cl)cc2)CC1)c1ccc(F)cc1 [haloperidol lactate, haloperidol]
16.1 h

---

Experiment: clinical
Conditions: both, human, plasma, im, 2.5 mg
metricName: Vd/F (L)
# unit: L | format: bare number

# lookup: Vd/F of O=C(CCCN1CCC(O)(c2ccc(Cl)cc2)CC1)c1ccc(F)cc1 [haloperidol lactate, haloperidol]
1360

---

Assay: clinical
Conditions: both, human, plasma, im, 2.5 mg, Cmax, IM 2.5 mg, n=4, mean (CV %)
metricName: Cmax (ng/mL)
# unit: ng/mL | format: bare number

# lookup: Cmax of O=C(CCCN1CCC(O)(c2ccc(Cl)cc2)CC1)c1ccc(F)cc1 [haloperidol lactate, haloperidol]
8.42

---

Assay: clinical
Settings: both, human, plasma, im, 2.5 mg
metricName: AUC(0-t) (ng·h/mL)
# unit: ng·h/mL | format: bare number

# lookup: AUC(0-t) of O=C(CCCN1CCC(O)(c2ccc(Cl)cc2)CC1)c1ccc(F)cc1 [haloperidol lactate, haloperidol]
59.7

---

Experiment: clinical
Conditions: both, human, plasma, other: intranasal, 2.5 mg
metricName: bioavailability (%)
# unit: % | format: bare number

# lookup: bioavailability of O=C(CCCN1CCC(O)(c2ccc(Cl)cc2)CC1)c1ccc(F)cc1 [haloperidol lactate, haloperidol]
63.8

---

Assay: clinical
Conditions: both, human, plasma, iv, 2.5 mg, Cmax, IV 2.5 mg, n=4, mean (CV %)
metricName: Cmax (ng/mL)
# unit: ng/mL | format: bare number

# lookup: Cmax of O=C(CCCN1CCC(O)(c2ccc(Cl)cc2)CC1)c1ccc(F)cc1 [haloperidol lactate, haloperidol]
23.3

---

Assay: clinical
Conditions: both, human, plasma, iv, 2.5 mg
metricName: AUC(0-inf) (ng·h/mL)
# unit: ng·h/mL | format: bare number

# lookup: AUC(0-inf) of O=C(CCCN1CCC(O)(c2ccc(Cl)cc2)CC1)c1ccc(F)cc1 [haloperidol lactate, haloperidol]
60.4

---

Test: clinical
Settings: both, human, plasma, iv, 2.5 mg
metricName: MRT

# lookup: MRT of O=C(CCCN1CCC(O)(c2ccc(Cl)cc2)CC1)c1ccc(F)cc1 [haloperidol lactate, haloperidol]
12.7 h
